Data origin, for the record: patent US20250277038A1

- assay system: T1, human PD-L1 (Acro, Catalog Number: H5229) (human, UniProt Q9NZQ7 19-238)
- T1 construct: Soluble antigen in the BLI assay; also called antigen
- T1 sequence (Q9NZQ7 19-238 limits assumed): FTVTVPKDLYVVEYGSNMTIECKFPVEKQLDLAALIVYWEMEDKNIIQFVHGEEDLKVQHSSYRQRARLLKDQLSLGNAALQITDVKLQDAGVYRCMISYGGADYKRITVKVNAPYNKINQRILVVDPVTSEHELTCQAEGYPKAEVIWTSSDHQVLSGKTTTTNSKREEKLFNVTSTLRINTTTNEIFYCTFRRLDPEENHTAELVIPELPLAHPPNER
- run description: BLI, Octet RED96e, antibody on AHC sensor, antigen 100 nM, 1:1 fit
value type: Kd (nM)
Write the answer as a number in nM, unit excluded.

Worked set:
{"binder": "1910G2HzL4H4 (antibody, V domains shown, Only the variable domains are tied to the name; Full chains are not tied to the name; also called humanized antibody 1910G2HzL4H4; 1910G2HzL4 + 1910G2HzH4) VH: EVQLVESGGGLVQPGGSLRLSCAASGFTFSNFWMTWVRQAPGKGLEWVASITHSGGITYYPDSVKGRFTISRDDSKNTLYLQMNSLRAEDTAVYYCSRDPTEAPFDYWGQGTLVTVSS VL: DIQMTQSPSSLSASVGDRVTITCQASQNINNYIAWYQQKPGKAPKQLIRYTSTLVSGVPSRFSGSGSGKDYTFTISSLQPEDIATYYCLQYDNVPNTFGQGTKLEIK", "value observed": 0.16}
{"binder": "1910G2HzL7H7 (antibody, V domains shown, Only the variable domains are tied to the name; Full chains are not tied to the name; also called humanized antibody 1910G2HzL7H7; 1910G2HzL7 + 1910G2HzH7) VH: EVQLVESGGGLVQPGGSLRLSCAASGFTFSNFWMTWVRQAPGKGLEWVASITHSGGITYYADSVKGRFTISRDDSKSTLYLQMNSLRAEDTAVYYCSRDPTEAPFDYWGQGTLVTVSS VL: DIQMTQSPSSLSASVGDRVTITCQASQNINNYIAWYQQKPGKAPKQLIRYTSTLVSGVPSRFSGSGSGKDYTFTISSLQPEDIATYYCLQYDNVPNTFGQGTKLEIK", "value observed": 0.302}
{"binder": "1910G2HzL3H3 (antibody, V domains shown, Only the variable domains are tied to the name; Full chains are not tied to the name; also called humanized antibody 1910G2HzL3H3; 1910G2HzL3 + 1910G2HzH3) VH: EVQLVESGGGLVQPGGSLRLSCAASGFTFSNFWMSWVRQAPGKGLEWVASITHSGGITYYVDSVKGRFTISRDNAKSSLYLQMNSLRAEDTAVYYCSRDPTEAPFDYWGQGVMVTVSS VL: DIQMTQSPSSLSASVGDRVTITCQASQNINNYIAWYQQKPGKAPKQLIRYTSTLVSGTPSRFSGSGSGKDYTFTISNLQPEDIATYYCLQYDNVPNTFGQGTKLEIK", "value observed": 0.452}
{"binder": "1910G2HzL9H9 (antibody, V domains shown, Only the variable domains are tied to the name; Full chains are not tied to the name; also called humanized antibody 1910G2HzL9H9; 1910G2HzL9 + 1910G2HzH9) VH: EVQLVESGGGLVQPGGSLRLSCAASGFTFSNFWMSWVRQAPGKGLEWVASITHSGGITYYADSVKGRFTISRDDSKNTLYLQMNSLRAEDTAVYYCSRDPTEAPFDYWGQGTLVTVSS VL: DIQMTQSPSSLSASVGDRVTITCQASQNINNYIAWYQQKPGKAPKQLIRYTSTLVSGVPSRFSGSGSGKDFTFTISSLQPEDIATYYCLQYDNVPNTFGQGTKLEIK", "value observed": 0.214}

Now take the following binder into account.
Record 1910G2HzL2H2 (antibody, V domains shown, Only the variable domains are tied to the name; Captured on an AHC sensor and detected with anti-human secondary antibody; also called humanized antibody 1910G2HzL2H2; 1910G2HzL2 + 1910G2HzH2) VH: EVQLVESGGGLVQPGGSLRLSCAASGFTFSNFWMTWVRQAPGKGLEWVASITHSGGITYYVDSVKGRFTISRDDAKSSLYLQMNSLRAEDTAVYYCSRDPTEAPFDYWGQGTLVTVSS VL: DIQMTQSPSSLSASVGDRVTITCQASQNINNYIAWYQQKPGKAPKQLIRYTSTLVSGVPSRFSGSGSGKDYTFTISSLQPEDIATYYCLQYDNVPNTFGQGTKLEIK , field Kd: 0.243
